Test Protocol: Human HepG2 cell viability assay in 384 well format
Format: toxicity, cell-based
Parameters: dose 125 nL, time 70.5 hour; concentration not given beside the values
Study Conditions: HepG2 cells, read-out: Inhibition
Recorded measurements of cytotoxicity at 70.5 h, one per entry
Provide the reading as a plain figure in %.

Examples with their reported cytotoxicity at 70.5 h follow.
>>> print(df.to_string())
                                   molecule  measured_number
0  c1cc(CN2CCC(Cc3noc(C4CC4)n3)CC2)c2c(c1)OCO2            0.325
1  c1cncc(-c2ccc3c(c2)CCC32CCN(Cc3ccco3)CC2)c1           -0.391
2    CCCN1CCC(N2CCC(Cn3cc(C4CC4)nn3)CC2)CC1            -8.35

response.value for CS(=O)(=O)NC[C@H]1OC[C@H]2CN(CCc3ccccc3)CC[C@H]21 (field: cytotoxicity at 70.5 h) = -0.811

response.value for CC(C)(C)c1n[nH]c(C2CN(CC3CCC3)CCO2)n1 (configuration not stated) (field: cytotoxicity at 70.5 h) = -0.868

response.value for COCCc1nc(-c2cnn3c(C)cc(C)nc23)no1 (field: cytotoxicity at 70.5 h) = -107

response.value for COc1cccc(CNCCNS(=O)(=O)Cc2ccccc2)c1 (field: cytotoxicity at 70.5 h) = -6.4

response.value for COC[C@]1(O)CCN(c2cc(N3CCOCC3)ncn2)CC1(C)C (field: cytotoxicity at 70.5 h) = -9.52

response.value for Cc1ccc(C2=CCN(C(=O)C3CCN(C)C(=O)C3)CC2)cc1 (configuration not stated) (field: cytotoxicity at 70.5 h) = -6.32

response.value for CCc1ccc(NC(=O)CCN2CC(n3nc(C)cc3C)C2)cc1 (field: cytotoxicity at 70.5 h) = -1.14
